tested on: SF-539 CNS; experiment: NCI-60 one-dose screen, 48 h (100 = growth as untreated, 0 = no growth, -100 = all killed); conditions: 10 µM unless noted
The panel holds about 83,000 compounds, 20% with a hit somewhere; the sample as a whole holds those more often.
value_kind: growth (%)
Could you give me the number in %? Just the number is fine.

| compound | meas_value |
| --- | --- |
| OCCNC(Cc1ccccc1)c1ccc2c(c1)OCO2 (configuration not stated) | 104 |
| O=P(N1CC1)(N1CC1)N1CCc2ccccc21 | 105 |
| CCOC(=S)S[C@H]1C[C@@H]2[C@H](CC[C@]3(C)C(=O)CC[C@@H]23)[C@@]2(C)CCC(=O)C=C12 | 99.7 |
| CC(C)[C@]12O[C@H]1[C@@H]1O[C@]13[C@]1(O[C@H]1C[C@H]1c4c(C(=O)c5ccccc5)oc(OC(=O)c5ccccc5)c4CC[C@@]13C)[C@@H]2O | -40.6 |

Kindly note the recorded growth for "Clc1ccc(N2COOC3(OOC2)C2CC4CC(C2)CC3C4)cc1" , which is 23.5

Kindly note the recorded growth for CN1CCC(c2c[nH]c3ccccc23)C1 (configuration not stated) , which is 127

Kindly note the recorded growth for "CC[C@H](NC(=O)[C@H]1CCCCN1C)C(=O)N(C)[C@H](C[C@@H](OC(C)=O)c1nc(C(=O)N[C@@H](Cc2ccccc2)C[C@H](C)C(=O)O)cs1)C(C)C" , which is -12.1

Kindly note the recorded growth for "CCOC(=O)[C@@H](C)C[C@H](Cc1ccccc1)NC(=O)c1csc([C@@H](C[C@H](C(C)C)N(C)C(=O)[C@@H](NC(=O)[C@H]2C[C@H](O)CCN2C)C(C)C)OC(C)=O)n1" , which is -18.5

Kindly note the recorded growth for "C[C@]12CCc3sc(-c4cccc(F)c4)nc3C1=CC[C@@H]1[C@@H]2CC[C@]2(C)C(=O)CC[C@@H]12" , which is -33.4

Kindly note the recorded growth for O=P1(NCCCl)OCCCN1CCCl (configuration not stated) , which is 98.3

Kindly note the recorded growth for "O[C@H](CN1CC1)[C@@H](O)CN1CC1" , which is 24.6

Kindly note the recorded growth for "CO[C@H]1CC[C@@]2(C)C(=CC[C@@H]3[C@@H]2CC[C@]2(C)C(=O)C(=O)C[C@@H]32)C1" , which is 104

Kindly note the recorded growth for "Fc1ccc(C2=CCNCC2)cc1" , which is 93.4

Kindly note the recorded growth for "CN(C)C(=O)Oc1ccccc1" , which is 93.7

Kindly note the recorded growth for "O=C1C(N2CC2)=C(N2CC2)C(=O)C(N2CC2)=C1N1CC1" , which is -67.1

Kindly note the recorded growth for "COc1ccc(C2=N[C@@H](Cc3ccccc3)C(=O)Nc3ccsc32)cc1" , which is 44.9

Kindly note the recorded growth for "Clc1cccc(NCOOC2(OOCNc3cccc(Cl)c3)CCCCC2)c1" , which is 16.4

Kindly note the recorded growth for "CC[C@H](C)[C@H](NC(=O)[C@H]1CCCCN1C)C(=O)N(C)[C@H](C[C@@H](OC(C)=O)c1nc(C(=O)NC23CC(C(=O)OC)(C2)C3)cs1)C(C)C" , which is -22

Kindly note the recorded growth for "Cc1c(O)c(CN(CCCl)CCCl)cc(CN(CCCl)CCCl)c1O" , which is 82.5

###

Tested on: OVCAR-4 ovarian
Assay: NCI-60 one-dose screen, 48 h (100 = growth as untreated, 0 = no growth, -100 = all killed)
Settings: 10 µM unless noted
Procedure: Growth inhibition of the OVCAR-4 human tumor cell line is measured as a screen for anti-cancer activity. Cells are grown in 96 well plates and exposed to the test compound for 48 hours. Compounds are tested at a single concentration, which is 10^-5 M for most compounds. The reported endpoint is percent growth (GI% or GIPRCNT), where numbers from 0 - 100% represent growth inhibition, and numbers from -100% - 0 represent cell death. For example, a value of 40 represents 60% growth inhibition. […]
Compounds without any hit were thinned out: in the full panel of roughly 83,000, 20% have a hit.
value_kind: growth (%)
Could you give me the number in %? Just the number is fine.

| compound | growth, % |
| --- | --- |
| O=[N+]([O-])c1cnc[nH]1 | 114 |

Entry "NC(N)=N/N=C\c1c[nH]c2ccc(Br)cc12" ; assay system OVCAR-4 ovarian; growth recorded at 97.2

Entry "CC(=O)OC[C@]1(C)C=C2C(=O)[C@](C)(O)C3(CC3)C(C)=C2[C@H]1OC(=O)N(C)CCN(C)C(=O)OC(C)(C)C" ; assay system OVCAR-4 ovarian; growth recorded at -2.23

Entry "CC(C)=CCC/C(C)=C/C=N\N=C(/N)N[N+](=O)[O-]" ; assay system OVCAR-4 ovarian; growth recorded at 93.4

Entry O=C(CC1(O)C(=O)N(Cc2ccccc2)c2ccccc21)c1ccc(C(=O)NCC2CCC3(CC2)OOC2(CCCCC2)OO3)cc1 (stereo not given) ; assay system OVCAR-4 ovarian; growth recorded at -36.6

###

System: SK-MEL-28 melanoma
Test: NCI-60 one-dose screen, 48 h (100 = growth as untreated, 0 = no growth, -100 = all killed)
Conditions: 10 µM unless noted
Protocol: Growth inhibition of the SK-MEL-28 human tumor cell line is measured as a screen for anti-cancer activity. Cells are grown in 96 well plates and exposed to the test compound for 48 hours. Compounds are tested at a single concentration, which is 10^-5 M for most compounds. The reported endpoint is percent growth (GI% or GIPRCNT), where numbers from 0 - 100% represent growth inhibition, and numbers from -100% - 0 represent cell death. For example, a value of 40 represents 60% growth inhibition. […]
This is part of a sample that, as a whole, favours compounds with a hit. Of some 83,000 tested, about 20% had one in any assay.
value_kind: growth (%)
Could you give me the number in %? Just the number is fine.

Guide cases for growth, answers given:
| compound | test_target | quantity_unit | growth |
| --- | --- | --- | --- |
| O=C([O][Hg][CH2]C1OCCOC1[CH2][Hg][O]C(=O)c1ccccc1)c1ccccc1 (stereo not drawn) | SK-MEL-28 melanoma | % | -96.7 |
| CC(C)=CC1C(C(=O)OCc2cccc(Oc3ccccc3)c2)C1(C)C (stereo not drawn) | SK-MEL-28 melanoma | % | 119 |
| CC(=O)O[C@H]1CC[C@]2(C)[C@H]3CC[C@]4(C)[C@@H](OC(C)=O)CC[C@H]4[C@@H]3[C@@H](C)[C@]2(O)C1 | SK-MEL-28 melanoma | % | 117 |
| C[CH2][Sn]([Cl])([Cl])[CH2]C.Oc1ccccc1C=NCCN=Cc1ccccc1O | SK-MEL-28 melanoma | % | 124 |

Kindly note the recorded growth for "COc1ccc(N(CC(=O)NCCC[Te]c2ccccc2)C(=O)CCSC2=C(C)C(=O)c3ccccc3C2=O)cc1" , which is -18.1

Kindly note the recorded growth for "O=C([O][Hg][c]1ccccc1)c1ccccc1" , which is -61.1

Kindly note the recorded growth for "CC(=O)OCC1O[C@@H]([S-])C(OC(C)=O)[C@H](OC(C)=O)[C@@H]1OC(C)=O.[Au+].c1ccc(CN2[CH-]N(Cc3ccccc3)C(c3ccccc3)=C2c2ccccc2)cc1" , which is -56.8

Kindly note the recorded growth for "N#CC1(c2ccccc2)CCN(Cc2ccccc2)CC1" , which is 122

###

tested on: CCRF-CEM leukemia; test: NCI-60 one-dose screen, 48 h (100 = growth as untreated, 0 = no growth, -100 = all killed); details: 10 µM unless noted
The panel holds about 83,000 compounds, 20% with a hit somewhere; the sample as a whole holds those more often.
Reported growth by item:
Could you give me the number in %? Just the number is fine.

| compound | test_target | growth [%] |
| --- | --- | --- |
| COC(C(=O)[C@@H](O)[C@@H](C)O)[C@@H]1Cc2cc3cc(O[C@H]4C[C@@H](O[C@H]5C[C@@H](O)[C@H](O)C(C)O5)[C@H](O)C(C)O4)c(C)c(O)c3c(O)c2C(=O)[C@H]1O[C@H]1C[C@@H](O[C@H]2C[C@@H](O[C@H]3C[C@@H](O)[C@@H](O)C(C)O3)[C@@H](O)C(C)O2)[C@H](O)C(C)O1 (stereo not given in full) | CCRF-CEM leukemia | 29.4 |
| O=[N+]([O-])c1cc([N+](=O)[O-])c(Nn2c3ccccc3c3ccccc32)c([N+](=O)[O-])c1 | CCRF-CEM leukemia | -0.784 |
| CC[CH2][Sn]([Cl])([Cl])[CH2]CC | CCRF-CEM leukemia | 10 |
| CC(=O)Oc1ccccc1C(=O)NCCC[Se]C#N | CCRF-CEM leukemia | 22.9 |
| CC(=O)c1ccc(C(=O)NCC2CCC3(CC2)OOC2(CCCCC2)OO3)cc1 | CCRF-CEM leukemia | 31.9 |

Kindly note the recorded growth for COc1cc(C=C2c3ccccc3C(=O)c3ccccc32)ccc1OCCCCOc1cc2c(cc1OC)C(=O)N1CCCC1C=N2 (stereo not given) , which is -24

Kindly note the recorded growth for "COc1ccc(/C(C)=C(\c2ccc(OCCN3CCOCC3)cc2)c2ccc(OC(=O)Cc3ccccc3)cc2)cc1" , which is 98.3

Kindly note the recorded growth for "CC[C@H](C)[C@H](NC(=O)[C@H]1CCCCN1C)C(=O)N(C)[C@H](C[C@@H](OC(C)=O)c1cccc(C(=O)N[C@@H](Cc2ccccc2)C[C@H](C)C(=O)O)n1)C(C)C" , which is 16.8

Kindly note the recorded growth for "CC(=O)[C@H]1CC[C@H]2[C@@H]3CC[C@H]4C[C@H](N)CC[C@]4(C)[C@H]3CC[C@]12C" , which is 102

Kindly note the recorded growth for C/C=C(\C)C(=O)O[C@@H]1C(O)[C@H]2OC(COC(=O)CCC(=O)CCCCCC[C@H](CCCCC)O[C@@H]3OC(C)[C@H](OC(C)=O)C(O)[C@H]3O2)[C@H]1OC(=O)/C=C/c1ccccc1 (stereo not given in full) , which is 24.2

Kindly note the recorded growth for "CC[C@H](C)[C@H](NC(=O)NC(C)(C)C)C(=O)N(C)[C@H](C[C@@H](OC(C)=O)c1nc(C(=O)N[C@@H](Cc2ccccc2)C[C@H](C)C(=O)OC)cs1)C(C)C" , which is 10.7

Kindly note the recorded growth for "COc1cccc2c1c(C(=O)C(=O)Nc1ccn[nH]1)cn2Cc1ccc(F)cc1" , which is 93.2

Kindly note the recorded growth for "Oc1c(O)c(Cl)c(Cl)c(Cl)c1Cl" , which is 35.3

Kindly note the recorded growth for "C#Cc1ccc2c(c1)C(c1ccccc1F)=NCC(=O)N2C" , which is 58.8

Kindly note the recorded growth for "Nc1c(F)cc(-c2nc3cc(F)ccc3[se]2)cc1Br" , which is 95.5

Kindly note the recorded growth for "Cc1ccc(Nc2nc3c(s2)C2=CC[C@@H]4[C@H](CC[C@]5(C)C(=O)CC[C@@H]45)[C@@]2(C)CC3)cc1" , which is 7.68
